- procedure.text: Toxicity liver stage against HepG2, at 10uM
- Assay type: cell-based
- Design: test concentration 10 uM, cell line HepG2-A16-CD81EGFP
- protocol.conditions: human, HepG2-A16-CD81EGFP cells; read-out: INHIBITION
# cytotoxicity at 10 µM per record follows
quantity: cytotoxicity at 10 µM (%)

INSERT INTO results (compound, quantity, reported) VALUES
  ('Cc1cccc(S(=O)(=O)N2CCCc3c(c(=O)n(C)n3C)C2)c1', 'cytotoxicity at 10 µM', -2.08),
  ('Nc1nccc(C2CCCN2CCc2ccccc2)n1 (centres undefined)', 'cytotoxicity at 10 µM', 3.38),
  ('Cn1ccc(C(=O)Nc2nc(-c3ccc4c(c3)CCO4)cs2)cc1=O', 'cytotoxicity at 10 µM', -9.46),
  ('Nc1ncccc1C(=O)NCc1ccc(Br)cc1', 'cytotoxicity at 10 µM', 35.7),
  ('Cn1cc(C2CCCN2C(=O)c2cnc(-c3ncccn3)s2)cn1 (centres undefined)', 'cytotoxicity at 10 µM', 18.8),
  ('CCN1C(=O)CCC12CCC(NC(=O)c1cnccn1)CC2 (centres undefined)', 'cytotoxicity at 10 µM', -2.42),
  ('COCC(O)CNC(=O)c1cc(COc2ccc3c(c2)CCCC3)on1 (centres undefined)', 'cytotoxicity at 10 µM', -147),
  ('CN(CCSc1nncn1C(C)(C)C)c1ccccc1', 'cytotoxicity at 10 µM', 24),
  ('CCC(CO)N(Cc1ccsc1)Cc1ccc(-c2ccn[nH]2)s1 (centres undefined)', 'cytotoxicity at 10 µM', -1.37),
  ('Cc1nsc(NCCNS(=O)(=O)c2cccc(Cl)c2)n1', 'cytotoxicity at 10 µM', 5.62),
  ('Cc1c(C(=O)N(C)C)cccc1N(C)S(C)(=O)=O', 'cytotoxicity at 10 µM', 8.19),
  ('CCS(=O)(=O)N1C[C@H]2CN(CC3CC3)C(=O)[C@H]2C1', 'cytotoxicity at 10 µM', 0.797),
  ('O=C(c1ccsc1)N1C[C@H]2CCC[C@@]2(COCc2cccnc2)C1', 'cytotoxicity at 10 µM', -2.86),
  ('COCC1CC2(CCN(Cc3cccc(C#N)c3)CC2)CN1C(C)C (centres undefined)', 'cytotoxicity at 10 µM', 0.866),
  ('Cc1nc(CN2CCc3ncnc(-c4ccccc4)c3CC2)cs1', 'cytotoxicity at 10 µM', -81.1),
  ('COCCN1CCC2(CC1)CC1(CCN(S(C)(=O)=O)CC1)N(C)C2=O', 'cytotoxicity at 10 µM', 0.964),
  ('O=c1[nH]c(-c2ccccc2)nc2c1CCN(S(=O)(=O)N1CCCC1)C2', 'cytotoxicity at 10 µM', 3.86),
  ('CN(Cc1cnn(C)c1)C(=O)NC1CCCC1', 'cytotoxicity at 10 µM', 7.43),
  ('CCC(C)N(Cc1cnc(NC(C)C)nc1)Cc1ccsc1 (centres undefined)', 'cytotoxicity at 10 µM', 3.84);
